- Tested on: NCI-H2023
- PROCEDURE TEXT: relative viability (nuclei count vs DMSO), 5 days (fraction); higher = more cells survive
- MEASUREMENT CONDITIONS: first compound 2.53 µM
# strict inequality: relative viability < 0.5 yields Met, everything else yields Not met

MOLECULE	DISCRETE LABEL
CCCCCCCCCCCC1=C(O)C(=O)C=C(O)C1=O [Embelin] + COc1cccc2cc(-c3nc([C@H]4CC[C@H](C(=O)O)CC4)n4ncnc(N)c34)[nH]c12 [OSI-027] (partner 0.5 µM)	Met
CCCCCCCCCCCC1=C(O)C(=O)C=C(O)C1=O [Embelin] + O=C(CCCCCCC(=O)Nc1ccccc1)NO [Vorinostat] (partner 1 µM)	Not met
CCCCCCCCCCCC1=C(O)C(=O)C=C(O)C1=O [Embelin] + CC(C)C[C@H](NC(=O)[C@H](Cc1ccccc1)NC(=O)c1cnccn1)B(O)O [Bortezomib] (partner 0.002 µM)	Not met
CCCCCCCCCCCC1=C(O)C(=O)C=C(O)C1=O [Embelin] + C[C@@H](Oc1cc(-c2cnn(C3CCNCC3)c2)cnc1N)c1c(Cl)ccc(F)c1Cl [Crizotinib] (partner 1 µM)	Not met

---

- Test system: NCI-H838
- PROCEDURE TEXT: relative viability (nuclei count vs DMSO), 5 days (fraction); higher = more cells survive
- MEASUREMENT CONDITIONS: first compound 0.08 µM
Hi! Could you tag entries with relative viability below 0.5 as fulfilled, and those at or above as not fulfilled? Much appreciated.

COMPOUND	TARGET OR TEST SYSTEM	DISCRETE LABEL
CCCCCCCCCCCC1=C(O)C(=O)C=C(O)C1=O [Embelin] + CC(=O)c1c(C)c2cnc(Nc3ccc(N4CCNCC4)cn3)nc2n(C2CCCC2)c1=O [Palbociclib] (partner 0.5 µM)	NCI-H838	fulfilled
CCCCCCCCCCCC1=C(O)C(=O)C=C(O)C1=O [Embelin] + Nc1nc2[nH]cc(CCc3ccc(C(=O)N[C@@H](CCC(=O)O)C(=O)O)cc3)c2c(=O)[nH]1 [Pemetrexed] (partner 0.2 µM)	NCI-H838	fulfilled
CCCCCCCCCCCC1=C(O)C(=O)C=C(O)C1=O [Embelin] + CS(=O)(=O)CCNCc1ccc(-c2ccc3ncnc(Nc4ccc(OCc5cccc(F)c5)c(Cl)c4)c3c2)o1 [Lapatinib] (partner 2 µM)	NCI-H838	not fulfilled
CCCCCCCCCCCC1=C(O)C(=O)C=C(O)C1=O [Embelin] + O=C(CCCCCCC(=O)Nc1ccccc1)NO [Vorinostat] (partner 1 µM)	NCI-H838	not fulfilled
CCCCCCCCCCCC1=C(O)C(=O)C=C(O)C1=O [Embelin] + O=C(c1cc(Cc2n[nH]c(=O)c3ccccc23)ccc1F)N1CCN(C(=O)C2CC2)CC1 [Olaparib] (partner 8 µM)	NCI-H838	not fulfilled

---

Reported relative viability values for the following compounds.
- System: NCI-H2347
- PROCEDURE TEXT: relative viability (nuclei count vs DMSO), 5 days (fraction); higher = more cells survive
- MEASUREMENT CONDITIONS: first compound 0.4 µM

COMPOUND	TARGET OR TEST SYSTEM	relative viability
C[C@@H]1CN(CC(=O)Nc2ccc3c(c2)Cc2cccc(-c4cc(=O)cc(N5CCOCC5)o4)c2S3)C[C@H](C)O1 + CC1(C)CCC(c2ccc(Cl)cc2)=C(CN2CCN(c3ccc(C(=O)NS(=O)(=O)c4ccc(N[C@H](CCN5CCOCC5)CSc5ccccc5)c(S(=O)(=O)C(F)(F)F)c4)cc3)CC2)C1 [Navitoclax] (partner 0.5 µM)	NCI-H2347	0.769
C[C@@H]1CN(CC(=O)Nc2ccc3c(c2)Cc2cccc(-c4cc(=O)cc(N5CCOCC5)o4)c2S3)C[C@H](C)O1 + Nc1ncn([C@H]2C[C@H](O)[C@@H](CO)O2)c(=O)n1 [Decitabine] (partner 2 µM)	NCI-H2347	0.693
